- Test system: NCI-H226
- PROTOCOL DETAILS: NCI tumour cell line growth inhibition, 48 h
The source made the active and inactive calls. Rule as the data show it: active = GI50 up to about 1.1 µM and inactive = higher.
// values below are reported GI50

Recorded results for 4 compounds are shown here.
{"columns": ["COMPOUND", "GI50"],
 "data": [
  ["CC(NC1=NCCO1)c1cccs1 (stereo not given)", "46.8 µM (inactive)"],
  ["O=C1CCCC2=C1CC1=C(CCCC1=O)N2c1ccc(Cl)cc1", "> 100 µM (inactive)"],
  ["Cc1ccc(S(=O)(=O)C2=c3nc4ccccc4cc3=C3C(=O)c4ccccc4C(=O)C32)cc1 (stereo not given)", "> 100 µM (inactive)"],
  ["CC(=O)OC/C=C(/CCl)CCC(Br)C(C)(C)Br.CC(=O)OC/C=C(\\CCl)CCC(Br)C(C)(C)Br (stereo not given)", "> 10 µM (inactive)"]
]}

Query compound follows.
Data request: Entry Cc1cn(Cc2cn(CC3OC(n4cc(C)c(=O)[nH]c4=O)CC3O)nn2)c(=O)[nH]c1=O (stereo not given) : reported GI50 = ?
Data returned: > 100 µM (inactive)

----------
- Test system: SN12C
- PROTOCOL DETAILS: NCI tumour cell line growth inhibition, 48 h
Active and inactive are the calls of the source. No stated cut-off is given here; in the data, active = GI50 up to about 1.1 µM and inactive = higher.
QUANTITY KIND: GI50

Recorded results for 6 compounds are shown here.
{"columns": ["COMPOUND", "RESULT"],
 "data": [
  ["C/C=N\\n1c(C)n[nH]c1=O", "> 100 µM (inactive)"],
  ["COc1nc(N)c(NC2OC(CO)C(O)C2O)c(=O)[nH]1 (stereo not given)", "> 100 µM (inactive)"],
  ["C=C(/C=C/C=C(\\C)CCC=C(C)C)[C@@H]1CC[C@]2([C@H](CCCO)/C(=C(/C)C=O)CC[C@]2(C)O)[C@@H]1O", "17.1 µM (inactive)"],
  ["Nc1ccc([C@H]2C(=O)N[C@H]3CCC[C@H]32)cc1", "> 100 µM (inactive)"],
  ["Cn1c(-c2c(C3=CC(=O)N(c4ccccc4)C3=O)c3ccccc3n2C)cc2ccccc21", "> 100 µM (inactive)"],
  ["COC(=O)C#Cc1ccc([N+](=O)[O-])cc1", "1.67 µM (inactive)"]
]}

Query compound follows.
Data request: Entry CC(C)(C)OC(=O)C1C(=O)NC(=O)CC1C(OCc1ccccc1)C(OCc1ccccc1)C(COCc1ccccc1)OCc1ccccc1 (stereo not given) : reported GI50 = ?
Data returned: > 100 µM (inactive)

----------
- System: HOP-92
- PROTOCOL DETAILS: NCI tumour cell line growth inhibition, 48 h
Calls of active or inactive are those of the source. Rule as the data show it: active = GI50 up to about 1.1 µM and inactive = higher.
// values below are reported GI50

{"columns": ["MOLECULE", "GI50"],
 "data": [
  ["N/C(=N\\O)N/N=C/c1ccc(C(F)(F)F)cc1", "18.4 µM (inactive)"],
  ["COc1ccc2c(c1)c1nn(CCN3CCCCC3)c3ccc4c(=O)n(CCN(C)C)c(=O)n2c4c13", "0.152 µM (active)"],
  ["COc1ccc(/N=c2/[nH]c(N)c(C(=O)c3ccc(OC)cc3)s2)cc1", "25.1 µM (inactive)"],
  ["Nc1nc(SCCNC(=O)CCc2ccc(O)cc2)nc2c1ncn2C1OC(CO)C(O)C1O (stereo not given)", "> 203 µM (inactive)"]
]}

Data request: Entry CC(=O)O[C@@H]1CN(S(=O)(=O)c2ccc(C)cc2)C[C@@H]1C1CCCCC1 : reported GI50 = ?
Data returned: 14.7 µM (inactive)

Data request: Entry C=CCNC(=O)CN(CC(=O)OC)C1CCCCC1N(CC(=O)OC)CC(=O)OC (stereo not given) : reported GI50 = ?
Data returned: > 100 µM (inactive)

Data request: Entry O=C1Nc2ccc(Br)cc2/C1=N/N1C(=O)C(=O)N(C2CCCCC2)C1=S : reported GI50 = ?
Data returned: 14.4 µM (inactive)

Data request: Entry C/C=C(\C)C(=O)OC1C2C(C)C(=O)OC2C(O)C(C)C2C=CC(=O)C21C (stereo not given) : reported GI50 = ?
Data returned: 13.4 µM (inactive)

Data request: Entry O=C(NC1CCCCC1)c1c(O)[nH]c(=S)[nH]c1=O : reported GI50 = ?
Data returned: 96.8 µM (inactive)

Data request: Entry COc1ccc(C(c2c(O)c3ccccc3n(C)c2=O)c2c(O)c3ccccc3n(C)c2=O)cc1 : reported GI50 = ?
Data returned: 22.6 µM (inactive)

Data provenance is ChEMBL document CHEMBL1201862.
